Tested on: nude mice, HT29 intrarenal xenograft, tumor weight T/C
assay_text: NCI In Vivo Anticancer Drug Screen. Data for tumor model HT29;CX-1 Human Adenocarcinoma (MER+) (intrarenal inoculation) in NU/NU Swiss (nude) mice
experimental_setup: endpoint: mean tumor weight change; dose: 50.0 mg/kg/injection; schedule: Q01DX010 (sc); vehicle: saline; higher = larger tumour
Records with an inconclusive call do not appear.
Listed next: entries and their corresponding T/C.
parameter: T/C

>>> observed_value("N=C(N)Sc1ccccn1")
"89 % of control"
>>> observed_value("CC1CN1P1(N2CC2C)=NP(N2CC2C)(N2CC2C)=NP(N2CC2C)(N2CC2C)=N1 (stereo not drawn)")
"79 % of control"
>>> observed_value("COc1cc2cc3c4cc(OC)c(OC)cc4cc[n+]3c(C)c2cc1OC (tested in a mixture with another compound)")
"76 % of control"
>>> observed_value("O=c1n(CC2CO2)c(=O)n(CC2CO2)c(=O)n1CC1CO1 (stereo not drawn)")
"29 % of control"
>>> observed_value("C[CH2][Ge]1([CH2]C)[CH2]CC2(CCN(CCCN(C)C)C2)C[CH2]1")
"99 % of control"
>>> observed_value("CS(=O)(=O)OCCN(CCOS(C)(=O)=O)c1ccc(C=O)cc1")
"37 % of control"
>>> observed_value("O=P1(N(CCCl)CCCl)NCCCO1 (stereo not drawn)")
"58 % of control"
>>> observed_value("COc1cc(C)c2c(c1C=O)Oc1c(c(C)c(O)c3c1C(O)OC3=O)OC2=O (stereo not drawn)")
"68 % of control"
>>> observed_value("Nc1cc2[nH]cnc2c(=O)[nH]1")
"112 % of control"
>>> observed_value("C(CC1CO1)C1CO1 (stereo not drawn)")
"35 % of control"
>>> observed_value("CC1(C)OC(=O)N(CO)C1=O")
"118 % of control"
>>> observed_value("CCCCCC[C@H]([C@H](C)O)n1cnc2c(N)ncnc21")
"26 % of control"
>>> observed_value("OCC1OC(n2cnc3c(=S)nc[nH]c32)C(O)C1O (stereo not drawn)")
"77 % of control"
>>> observed_value("Cc1cn(C2CC3[O][Sn]([c]4ccccc4)([c]4ccccc4)[O]CC3O2)c(=O)[nH]c1=O (stereo not drawn)")
"60 % of control"
>>> observed_value("COc1ccc(C(=O)/C(Br)=C/C(=O)O)cc1")
"56 % of control"
>>> observed_value("Nc1nc(F)nc2c1ncn2C1OC(COP(=O)(O)O)C(O)C1O (stereo not drawn)")
"91 % of control"
>>> observed_value("CCOC(=O)c1c[nH]c2oc(/C=N/N3CC(CN4CCOCC4)OC3=O)cc2c1=O (stereo not drawn)")
"69 % of control"
>>> observed_value("NC(C/[N+]([O-])=N/O)C(=O)O (stereo not drawn)")
"186 % of control"
>>> observed_value("CC1(C)N=C(N)N=C(N)N1c1ccc(CCCCc2ccc(S(=O)(=O)F)cc2Cl)c(Cl)c1")
"98 % of control"
>>> observed_value("COc1cccc2c1C(=O)c1c(O)c3c(c(O)c1C2=O)C[C@H](O)C[C@@H]3OC1CC(N)C(O)C(C)O1 (stereo partly drawn)")
"87 % of control"
>>> observed_value("CNNCc1ccc(C(=O)NC(C)C)cc1")
"194 % of control"
>>> observed_value("NC1=NCN(C2OC(CO)C(O)C2O)C(=O)N1 (stereo not drawn)")
"31 % of control"
>>> observed_value("CNC(=O)ON(C(C)=O)C(=O)NC")
"109 % of control"
